- System: Canis familiaris
- Experimental protocol: Lower clearance in dog (i.v.) at 0.5 mpk
- Assay type: ADME, organism-based, Canis lupus familiaris
- Condition notes: in vivo, iv, 0.5 mg/kg

{"Structure string": "CC[C@]1(C(=O)O)CCc2ccc(OCCCOc3ccc(Oc4ccc(F)cc4)cc3Cl)cc2O1", "Unit label": "mL/min/kg", "Clp": 3.5}

----------
- Tested on: Peroxisome proliferator-activated receptor gamma (Homo sapiens)
- Sequence (P37231 whole entry): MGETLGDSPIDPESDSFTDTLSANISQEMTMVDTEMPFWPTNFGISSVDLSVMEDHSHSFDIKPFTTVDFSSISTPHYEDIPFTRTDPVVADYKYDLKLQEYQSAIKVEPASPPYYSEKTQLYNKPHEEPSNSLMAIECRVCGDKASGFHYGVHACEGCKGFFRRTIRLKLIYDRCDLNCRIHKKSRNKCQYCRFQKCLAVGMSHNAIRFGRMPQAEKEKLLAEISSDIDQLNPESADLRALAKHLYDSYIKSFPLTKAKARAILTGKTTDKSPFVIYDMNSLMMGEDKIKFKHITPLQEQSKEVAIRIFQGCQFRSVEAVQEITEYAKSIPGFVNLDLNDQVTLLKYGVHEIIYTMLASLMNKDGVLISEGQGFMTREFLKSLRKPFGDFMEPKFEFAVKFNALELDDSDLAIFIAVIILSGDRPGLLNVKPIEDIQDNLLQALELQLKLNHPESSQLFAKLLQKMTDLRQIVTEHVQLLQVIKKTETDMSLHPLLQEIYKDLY
pIC50: −log10 of the molar value.
The entries below come with measured pIC50 values attached.

{"Compound": "CCCc1cc(Oc2ccc(S(C)(=O)=O)cc2)ccc1OCCCOc1ccc2c(c1)OC(CC)(C(=O)O)CC2 (configuration not stated)", "pIC50": 6.43}
{"Compound": "CCC1(C(=O)O)CCc2ccc(OCCCOc3ccc(Oc4ccccc4)cc3Cl)cc2O1 (configuration not stated)", "pIC50": 6.16}

----------
- Tested on: Peroxisome proliferator-activated receptor gamma (Mus musculus)
- Sequence (P37238 whole entry): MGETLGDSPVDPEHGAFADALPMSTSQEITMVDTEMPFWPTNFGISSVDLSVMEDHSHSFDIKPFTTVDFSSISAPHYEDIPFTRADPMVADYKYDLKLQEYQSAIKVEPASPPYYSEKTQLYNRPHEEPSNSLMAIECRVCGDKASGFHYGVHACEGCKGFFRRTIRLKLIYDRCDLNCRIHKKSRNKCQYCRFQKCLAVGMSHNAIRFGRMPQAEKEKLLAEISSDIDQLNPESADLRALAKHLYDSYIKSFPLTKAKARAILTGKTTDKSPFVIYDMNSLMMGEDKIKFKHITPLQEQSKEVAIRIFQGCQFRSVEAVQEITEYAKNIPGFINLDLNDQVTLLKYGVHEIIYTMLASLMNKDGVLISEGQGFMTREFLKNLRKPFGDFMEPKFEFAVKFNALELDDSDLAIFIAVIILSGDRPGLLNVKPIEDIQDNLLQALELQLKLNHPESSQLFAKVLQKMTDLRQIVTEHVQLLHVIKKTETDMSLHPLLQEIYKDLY
- Experimental protocol: In vitro transcriptional activation by PPAR gamma

{"Structure string": "CC[C@]1(C(=O)O)CCc2ccc(OCCCOc3ccc(Oc4ccc(F)cc4)cc3Cl)cc2O1", "EC50": "150 nM"}

----------
- Experimental protocol: Bioavailability in dog (p.o.) at 2.0 mpk
- Type: ADME, organism-based, Canis lupus familiaris
- Condition notes: in vivo, po, 2 mg/kg

{"Structure string": "CC[C@]1(C(=O)O)CCc2ccc(OCCCOc3ccc(Oc4ccc(F)cc4)cc3Cl)cc2O1", "bioavailability / %": 92}

----------
Below, each entry is listed alongside its reported EC50.
- Tested on: Peroxisome proliferator-activated receptor gamma (Homo sapiens, UniProt P37231)
- Sequence (P37231 whole entry): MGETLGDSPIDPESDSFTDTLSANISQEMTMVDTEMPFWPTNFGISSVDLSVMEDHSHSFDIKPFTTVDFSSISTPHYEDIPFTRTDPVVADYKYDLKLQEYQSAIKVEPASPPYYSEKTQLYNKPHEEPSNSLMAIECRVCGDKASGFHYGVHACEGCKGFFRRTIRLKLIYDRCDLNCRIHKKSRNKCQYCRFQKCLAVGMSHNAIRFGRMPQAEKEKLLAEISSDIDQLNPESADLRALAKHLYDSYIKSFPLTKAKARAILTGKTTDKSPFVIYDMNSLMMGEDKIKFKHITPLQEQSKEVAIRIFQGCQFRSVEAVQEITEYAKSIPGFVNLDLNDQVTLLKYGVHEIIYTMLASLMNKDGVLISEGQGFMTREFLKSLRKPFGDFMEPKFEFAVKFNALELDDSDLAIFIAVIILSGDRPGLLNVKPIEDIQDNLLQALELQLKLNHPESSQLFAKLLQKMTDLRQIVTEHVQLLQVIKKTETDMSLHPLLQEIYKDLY

{"Compound": "CCCc1cc(Oc2ccc(S(C)(=O)=O)cc2)ccc1OCCCOc1ccc2c(c1)OC(CC)(C(=O)O)CC2 (stereo not given)", "Tested on": "Peroxisome proliferator-activated receptor gamma (Homo sapiens, UniProt P37231)", "Unit label": "nM", "EC50": 2800}
{"Compound": "CCCc1cc(Oc2ccccc2)ccc1OCCCOc1ccc2c(c1)CCC(C(=O)O)O2 (stereo not given)", "Tested on": "Peroxisome proliferator-activated receptor gamma (Homo sapiens, UniProt P37231)", "Unit label": "nM", "EC50": 2800}
{"Compound": "CCCc1cc(Oc2ccccc2)ccc1OCCCOc1ccc2c(c1)OC(C(=O)O)CC2 (stereo not given)", "Tested on": "Peroxisome proliferator-activated receptor gamma (Homo sapiens, UniProt P37231)", "Unit label": "nM", "EC50": 7300}
{"Compound": "CCCc1cc(Oc2ccccc2)ccc1OCCCCOc1ccc2c(c1)OC(C(=O)O)CC2 (stereo not given)", "Tested on": "Peroxisome proliferator-activated receptor gamma (Homo sapiens, UniProt P37231)", "Unit label": "nM", "EC50": 1600}
{"Compound": "CCCc1cc(Oc2ccccc2)ccc1OCCCCOc1ccc2c(c1)CCC(C(=O)O)O2 (stereo not given)", "Tested on": "Peroxisome proliferator-activated receptor gamma (Homo sapiens, UniProt P37231)", "Unit label": "nM", "EC50": 2500}
{"Compound": "CCCc1cc(Oc2ccccc2)ccc1OCCCCOc1ccc2c(c1)CCC(C)(C(=O)O)O2 (stereo not given)", "Tested on": "Peroxisome proliferator-activated receptor gamma (Homo sapiens, UniProt P37231)", "Unit label": "nM", "EC50": 1200}
{"Compound": "CCCc1cc(Oc2ccccc2)ccc1OCCCOc1ccc2c(c1)CCC(C)(C(=O)O)O2 (stereo not given)", "Tested on": "Peroxisome proliferator-activated receptor gamma (Homo sapiens, UniProt P37231)", "Unit label": "nM", "EC50": 6800}
{"Compound": "CCCc1cc(Oc2ccc(OC)cc2)ccc1OCCCOc1ccc2c(c1)OC(CC)(C(=O)O)CC2 (stereo not given)", "Tested on": "Peroxisome proliferator-activated receptor gamma (Homo sapiens, UniProt P37231)", "Unit label": "nM", "EC50": 890}
{"Compound": "CCCc1cc(Oc2ccccc2)ccc1OCCCCOc1ccc2c(c1)OC(C)(C(=O)O)CC2 (stereo not given)", "Tested on": "Peroxisome proliferator-activated receptor gamma (Homo sapiens, UniProt P37231)", "Unit label": "nM", "EC50": 3600}
{"Compound": "CCCc1cc(Oc2ccccc2)ccc1OCCCOc1ccc2c(c1)OC(CCC)(C(=O)O)CC2 (stereo not given)", "Tested on": "Peroxisome proliferator-activated receptor gamma (Homo sapiens, UniProt P37231)", "Unit label": "nM", "EC50": 830}
{"Compound": "CCCc1cc(Oc2ccccc2)ccc1OCCCOc1ccc2c(c1)OC(C)(C(=O)O)CC2 (stereo not given)", "Tested on": "Peroxisome proliferator-activated receptor gamma (Homo sapiens, UniProt P37231)", "Unit label": "nM", "EC50": 1000}
{"Compound": "CCC1(C(=O)O)CCc2ccc(OCCCOc3ccc(Oc4ccccc4)cc3Cl)cc2O1 (stereo not given)", "Tested on": "Peroxisome proliferator-activated receptor gamma (Homo sapiens, UniProt P37231)", "Unit label": "nM", "EC50": 160}
{"Compound": "CCCc1cc(Oc2ccc(F)cc2)ccc1OCCCOc1ccc2c(c1)OC(CC)(C(=O)O)CC2 (stereo not given)", "Tested on": "Peroxisome proliferator-activated receptor gamma (Homo sapiens, UniProt P37231)", "Unit label": "nM", "EC50": 750}
{"Compound": "CCCc1cc(Oc2ccccc2)ccc1OCCCOc1ccc2c(c1)OC(CC)(C(=O)O)CC2 (stereo not given)", "Tested on": "Peroxisome proliferator-activated receptor gamma (Homo sapiens, UniProt P37231)", "Unit label": "nM", "EC50": 1000}
{"Compound": "CCCc1cc(Oc2ccc(Cl)cc2)ccc1OCCCOc1ccc2c(c1)OC(CC)(C(=O)O)CC2 (stereo not given)", "Tested on": "Peroxisome proliferator-activated receptor gamma (Homo sapiens, UniProt P37231)", "Unit label": "nM", "EC50": 670}

----------
- Tested on: Peroxisome proliferator-activated receptor gamma (Homo sapiens, UniProt P37231)
- Experimental protocol: In vitro binding affinity for human peroxisome proliferator activated receptor gamma using scintillation proximity assay (SPA)

{"Molecule": "CCCc1cc(Oc2ccc(F)cc2)ccc1OCCCOc1ccc2c(c1)OC(CC)(C(=O)O)CC2 (stereo not drawn)", "Tested on": "Peroxisome proliferator-activated receptor gamma (Homo sapiens, UniProt P37231)", "IC50": "1200 nM"}
{"Molecule": "CC1(C(=O)O)CCc2ccc(OCCCOc3ccc(Oc4ccccc4)cc3Cl)cc2O1 (stereo not drawn)", "Tested on": "Peroxisome proliferator-activated receptor gamma (Homo sapiens, UniProt P37231)", "IC50": "1400 nM"}
{"Molecule": "CCCc1cc(Oc2ccccc2)ccc1OCCCCOc1ccc2c(c1)CCC(C)(C(=O)O)O2 (stereo not drawn)", "Tested on": "Peroxisome proliferator-activated receptor gamma (Homo sapiens, UniProt P37231)", "IC50": "2300 nM"}
